Recorded values, source patent US20220372014A1.

- TARGET UNDER TEST: PAAN/MIF (Homo sapiens, UniProt P14174)
- Construct: GST (N, cleaved yes); made in house; host or cells: Escherichia coli
- Sequence (P14174 1-115): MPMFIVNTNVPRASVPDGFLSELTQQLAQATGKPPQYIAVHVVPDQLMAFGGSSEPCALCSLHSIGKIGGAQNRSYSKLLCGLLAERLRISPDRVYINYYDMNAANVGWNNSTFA
- TEST DESCRIPTION: In vitro PAAN/MIF nuclease assay (PS30 or RF substrate, PAGE gel, noncleaved substrate DNA)
- Format: biochemical
- SETUP CONDITIONS: RF and PS30 substrates
MEASURE NAME: inhibition of PAAN/MIF nuclease activity

>>> measured_value("COc1ccc(CC[C@H]2OC(=O)[C@@H]3CCCCN3C(=O)C(=O)C(C)(C)COC(=O)C=CCCN(C)C(=O)CNC(=O)[C@H](C(C)C)N(C)C(=O)[C@@H](Cc3ccccc3)NC(=O)[C@H](CC(C)C)N(C)C(=O)CCC(=O)Nc3cccc2c3)cc1OC")
"prominently blocked"
>>> measured_value("COc1ccc(CC[C@H]2OC(=O)[C@@H]3CCCCN3C(=O)C(=O)C(C)(C)COC(=O)C=CCCN(C)C(=O)[C@@H]3CCCN3C(=O)[C@H](COC(C)(C)C)N(C)C(=O)C(c3ccccc3)NC(=O)CN(C)C(=O)COc3cccc2c3)cc1OC (some centres unmarked)")
"prominently blocked"
>>> measured_value("COc1ccc(CC[C@H]2OC(=O)[C@@H]3CCCCN3C(=O)C(=O)C(C)(C)COC(=O)C=CCCN(C)C(=O)[C@H](C)NC(=O)[C@H](C(C)C)N(C)C(=O)[C@@H](Cc3ccccc3)NC(=O)[C@H](CC(C)C)N(C)C(=O)CCC(=O)Nc3cccc2c3)cc1OC")
"prominently blocked"
